Listed here: items and their measured TGI.
# Test system: IGROV1 ovarian
# EXPERIMENT SUMMARY: NCI tumour cell line growth inhibition, 48 h

Known results for compounds:
- O=c1cccccc1[O-].O=c1cccccc1[O-].O=c1cccccc1[O-].[Eu+3]: > 100 µM
- Cc1cc2c(c(C(N)=O)c1C)-c1cccc(F)c1C2=O: > 100 µM
- O=C1C2C(C(=O)N1c1ccccc1)C1c3ccccc3C2C2C(=O)N(c3ccccc3)C(=O)C21 (stereo not given): > 100 µM
- Cn1cccc1-c1ccc(-c2ccc(CO)[se]2)[se]1: > 100 µM

Enquiry: Find the recorded TGI belonging to FC(F)(F)c1cc(N(C2c3ccccc3C=Cc3ccccc32)P(Cl)Cl)cc(C(F)(F)F)c1 and report it.
Return: 92.3 µM

Enquiry: Given the entry CN(C)C(=O)Nc1nc2cc(Cl)c(Cl)cc2[nH]1 , report its measured TGI.
Return: > 100 µM

Enquiry: State the recorded TGI for this entry: CCOC(=O)C1CC(C(=O)c2ccccc2)N2c3ccccc3-c3ccccc3C12 (stereo not given)
Return: > 100 µM

Enquiry: Can you share its TGI? I mean this compound: C=C1C(=O)O[C@H]2[C@H]1CC/C(COC(=O)CCCCCC(=O)OC/C1=C/CC[C@@]3(C)O[C@H]3[C@H]3OC(=O)C(=C)[C@@H]3CC1)=C\CC[C@@]1(C)O[C@@H]21
Return: 9.32 µM

Enquiry: Query (compound): COc1ccccc1N=Nc1c(-c2ccccc2)nn(C(=O)CC(=O)Nc2cccc(C)c2)c1-c1ccccc1 ; field requested: TGI
Return: > 100 µM

Enquiry: Entry COc1ccc(C(=O)Cn2c(C(=O)c3ccccc3)nc3ccccc32)cc1 has what TGI?
Return: > 100 µM

Enquiry: Which TGI reading was recorded for the compound CSC(SC)=C(C#N)C(=O)Nc1cccc(Cl)c1 ?
Return: > 100 µM

Enquiry: I would be grateful if you could share the reported TGI for COC(C)(C)[C@@H](O)[C@H](O)C[C@H](C)C1=C2CC[C@@H]3[C@@]4(C)CC[C@@H](OC(C)=O)C(C)(C)[C@@H]4C[C@@H](OC4OC(COC(C)=O)C(O)C(O)C4O)[C@@]3(C)[C@]2(C)CC1 (stereo not given in full) .
Return: 26.2 µM

Enquiry: I have this compound here, Cc1ccc(S(=O)(=O)N/N=C(\c2nc3ccc(Cl)cc3[nH]c2=O)C(O)c2ccco2)cc1 (stereo not given) , and I need its recorded TGI.
Return: > 100 µM

Enquiry: So what does the record say about TGI for COc1cc(/C=C/c2ccc(C)cc2)cc(OC)c1OC ?
Return: > 91 µM

====

# Tested on: IGROV1 ovarian
# EXPERIMENT SUMMARY: NCI tumour cell line growth inhibition, 48 h
RECORDED ENDPOINT: TGI

Answered cases to consult:
- CCOC(=O)c1ccc(Nc2nc3ccccc3nc2-c2cccs2)cc1: > 100 µM
- Cc1ccc(S(=O)(=O)N2C[C@@H]3CC[C@]4(CO[Si](C)(C)C(C)(C)C)N[C@@H](c5ccccc5)[C@H]2[C@H]34)cc1: > 100 µM

Enquiry: Which TGI value belongs to COc1ccccc1OCC(COC(=O)Nc1ccccc1)OC(=O)Nc1ccccc1 (stereo not given) ?
Return: > 100 µM

Enquiry: Param item = CSC(=S)Nc1cc(C)cc(C)n1 ; retrieve measured TGI.
Return: > 100 µM

Enquiry: TGI lookup needed for ClC(Cl)=C(Cl)C1(Cl)CC1COCc1ccccc1 (stereo not given) , thanks.
Return: > 100 µM

Enquiry: What value of TGI has been reported for the following compound? O=C(NCCN1CCOCC1)OCc1nc2nc(Cl)nc(N3CCOCC3)c2[nH]1
Return: > 100 µM

Enquiry: Need TGI, item O=c1c2cc(C(F)(F)F)ccc2sc2c(NCCCNCCO)nc3ccccc3c12
Return: 2.62 µM

Enquiry: Item COC(C/C(=C/CO[Si](C(C)C)(C(C)C)C(C)C)C(=O)N(COCC[Si](C)(C)C)c1ccccc1I)OC has what recorded TGI?
Return: 27.4 µM

Enquiry: Given the compound Nc1ccn(C2CC(F)C(CO)O2)c(=O)n1 (stereo not given) , what is its reported TGI?
Return: > 100 µM

Enquiry: What does the record list as TGI for CNc1nnc(CCCCCCCCc2nnc(NC)o2)o1 ?
Return: > 100 µM

====

# Tested on: MDA-MB-435
GI50: recorded values

Example results:
* c1ccc(-c2nn3c(c2-c2ccnc4cc(OCCN5CCOCC5)ccc24)CCC3)nc1 | 25.8 µM
* COc1ccc2c(c1)[n+](=O)c(C(=O)c1cccs1)c(C(F)(F)F)n2[O-] | 12.2 µM

Turning now to a further compound:
Enquiry: # returns recorded GI50 (system: MDA-MB-435) for [2H]C([2H])([2H])NC(=O)c1nnc(NC(=O)C2CC2)cc1Nc1cccc(-c2ncn(C)n2)c1OC
Return: 56.7 µM

====

# Tested on: U251 CNS
# EXPERIMENT SUMMARY: NCI tumour cell line growth inhibition, 48 h
RECORDED ENDPOINT: TGI

Some compounds with recorded TGI:
- COC(=O)CCC(NC(=S)N/N=C(\C)c1ccc[nH]1)C(=O)OC (stereo not given): > 100 µM
- CC(=O)n1cc(C2CC23N=C(c2ccccc2)OC3=O)c2ccccc21 (stereo not given): 36.8 µM
- O=C1CCCNn2c(nc3ncccc3c2=O)N1: > 100 µM
- CCCn1c(SCCSc2c3ccccc3c(-c3nc(F)nc(F)n3)n2CCC)c2ccccc2c1-c1nc(F)nc(F)n1: > 100 µM
- COC(=O)c1c2c(c(C)[n+]([O-])c1C)C(=O)C=C(NCc1ccccc1)C2=O: 3.02 µM
- COc1ccc(-n2c(=O)c3[nH]c(=S)[nH]c3n(-c3ccc(OC)cc3)c2=S)cc1: > 100 µM
- O=S(=O)(O)O: 1480 µM
- CSC(=S)Nc1cc(C)cc(C)n1: > 31.6 µM
- CCCCC(SC(=S)N1CCCC1)C(=O)Nc1nc(CC(=O)OCC)cs1 (stereo not given): > 100 µM
- C/C=C(\C)C(=O)OC1CC(OC(C)=O)C2(C(=O)OC)COC3C2C1(C)C1C2(C(=O)OC)OCC1(C3O)C1(O)C3CC(C4(O)C=COC4O3)C1(C)O2 (stereo not given): > 100 µM

Enquiry: Record lookup: for U251 CNS, what TGI belongs to Nc1ccc(-c2nc3ccccc3s2)cc1Cl ?
Return: > 100 µM

Enquiry: Write down the reported TGI of CCCn1c2c(c3c(O)cccc31)C(=O)c1ccccc1-2 , test system: U251 CNS.
Return: 56.2 µM

Enquiry: # returns recorded TGI (system: U251 CNS) for Cc1cc2c(c(C(N)=O)c1C)-c1cccc(F)c1C2=O
Return: > 100 µM

Enquiry: Find the measured TGI: item CCOC(=O)NC(=O)c1cn(CCN2CCN(C(=O)CNC(=O)CNC(=O)Cn3cc(C(=O)NC(=O)OCC)c(=O)[nH]c3=O)CC2)c(=O)[nH]c1=O , target or system U251 CNS.
Return: > 100 µM

====

TGI for assorted molecules
# System: SNB-19 CNS
# EXPERIMENT SUMMARY: NCI tumour cell line growth inhibition, 48 h

Sample answers from the record:
• COc1cc(-c2nc3ccccc3s2)ccc1OCCCCOc1cc2c(cc1OC)C(=O)N1CCC[C@H]1C=N2 = 4.11 µM
• COC1C(OC(=O)c2ccc(C)[nH]2)C(O)C(Oc2ccc3c(O)c(NC(=O)c4c[nH]c(C(=O)Nc5c(O)c6ccc(OC7OC(C)(C)C(OC)C(OC(=O)c8ccc(C)[nH]8)C7O)c(C)c6oc5=O)c4C)c(=O)oc3c2C)OC1(C)C (stereo not drawn) = 6.1 µM
• COc1c(C(C)=O)c(OCCCCOc2c(C(C)=O)c(OC)c3ccoc3c2OC)c(OC)c2occc12 = > 100 µM

Enquiry: Look at this molecule and give its reported TGI. CCCCc1ccc(Nc2ncc3ncn(COCCO)c3n2)cc1
Return: > 100 µM

Enquiry: Using the record for CN1C(=O)c2ccc3ccccc3c2C1=O , report its TGI.
Return: > 100 µM

Enquiry: Any idea what its TGI is? The molecule is COc1ccc(-c2c(C)c(C(=O)O)nc(-c3ccc4c(O)c(OC)c5c(c4n3)=NC(C)(C)N=5)c2N)c(O)c1OC
Return: 95 µM

Enquiry: I am curious: what TGI value has been reported for CCO/C=C1\N=C(c2ccc(Cl)c(Cl)c2)OC1=O ?
Return: > 100 µM

Enquiry: Name the recorded TGI for Cc1c(CNc2ccc(C(=O)NC(CCCNC(=O)c3ccccc3C(=O)O)C(=O)O)cc2)cnc2nc(N)nc(N)c12 (stereo not drawn) .
Return: > 100 µM

====

# Test system: HS 578T breast
# EXPERIMENT SUMMARY: NCI tumour cell line growth inhibition, 48 h
*1 amine or outer side, *2 acyl side, *3 side chain or, on linkers, in order; H or OH if unused. Where a SMILES comes first, the peptide text is derived from it. Bridges are numbered along the chain shown (N, C = ends). Roman numbers before positions name the chains, in order. [ ]: non-standard residue; d: D form. Actinocin(9to1) = Cc1c2oc3c(C)ccc(C(=O)[*:1])c3nc-2c(C(=O)[*:2])c(N)c1=O; NMeH = CN[CH](Cc1c[nH]cn1)C(=O)O; Sar = CNCC(=O)O
Quick reference for TGI among some compounds

Please review the following examples before continuing.
* C1=C(c2ccccc2)C(N2CCOCC2)Oc2ccccc21 (stereo not given) | > 100 µM
* Cc1ccc2nc3ccccc3c(NCc3ccc(Cl)cc3)c2c1 | 20.2 µM
* COc1ccc(-c2cc(=O)n(-c3nc4ccccc4[nH]3)[nH]2)cc1OC | 66.6 µM
* COc1ccc(C2C3=C(N=C4SC(C(C)=O)=C(C)N42)c2ccccc2CC3)cc1 (stereo not given) | > 100 µM
* CN(C)C(=O)Nc1nc2cc(Cl)c(Cl)cc2[nH]1 | > 55.1 µM

Enquiry: # get_value(readout= TGI, system= HS 578T breast) for COC(=O)[C@@H]1CS(=O)(=O)C(C(C)C)N1C(C)=O (stereo not given in full)
Return: > 100 µM

Enquiry: Checklist item: TGI tested on HS 578T breast, entry CSC(SC)=C(C#N)C(=O)Nc1cccc(Cl)c1 , value?
Return: > 100 µM

Enquiry: What measured TGI is associated with COc1ccc(/C=C(/c2ccccc2)[N+](=O)[O-])c(OC)c1 on HS 578T breast?
Return: 6.65 µM

Enquiry: Tell me reported TGI for N#Cc1nc(-c2ccc(F)cc2)oc1S(=O)(=O)N1CCCCC1 , tested with HS 578T breast.
Return: 5.74 µM

Enquiry: Recorded TGI for C#CC(O)(c1nc2ccccc2s1)c1nc2ccccc2s1 with HS 578T breast, please?
Return: > 100 µM

Enquiry: Report TGI for CCOC(=O)c1ccc(Nc2nc3ccccc3nc2-c2cccs2)cc1 tested on HS 578T breast.
Return: > 100 µM

Enquiry: # returns recorded TGI (system: HS 578T breast) for O=c1c2c([nH]c3nccn13)CCC2
Return: > 10 µM

Enquiry: Identify the measured TGI of C=CO/N=[N+](\[O-])N(CC)CC for HS 578T breast.
Return: > 100 µM

Enquiry: # get_value(readout= TGI, system= HS 578T breast) for O[C@@H]1C=C[C@]23CCN(Cc4cc5c(cc42)OCO5)[C@@H]3C1
Return: > 100 µM

Enquiry: // fetch HS 578T breast TGI for O=C(/C(=C(/O)c1ccccc1)c1nc2ccccc2sc1=O)c1ccccc1
Return: > 100 µM

Enquiry: State its TGI on HS 578T breast: Cc1ccc(/C=C(\C#N)c2cc3ccccc3n2C)cc1
Return: > 100 µM

Enquiry: Form entry - test system: HS 578T breast; read-out: TGI; compound: C(/C=N/NC1=NCCCCN1)=N\NC1=NCCCCN1
Return: > 100 µM

Enquiry: Param readout= TGI; system= HS 578T breast; entry= CN(C)Cc1ccc(-c2cc3onc(-c4ccccc4)c3c(=O)n2C)cc1 ; returns value.
Return: 46.2 µM

Enquiry: Give HS 578T breast TGI for O=C(NCCN1CCOCC1)OCc1nc2nc(Cl)nc(N3CCOCC3)c2[nH]1
Return: > 100 µM

Enquiry: What measured TGI is associated with Cc1c2oc3c(C)ccc(C(=O)NC4C(=O)NC(C(C)C)C(=O)N5CCCC5C(=O)N(C)CC(=O)N(C)C(Cc5cnc[nH]5)C(=O)OC4C)c3nc-2c(C(=O)NC2C(=O)NC(C(C)C)C(=O)N3CCCC3C(=O)N(C)CC(=O)N(C)C(Cc3cnc[nH]3)C(=O)OC2C)c(N)c1=O (stereo not given) (I: TVP[Sar][NMeH] / II: TVP[Sar][NMeH]; ester I:1-I:C, II:1-II:C; linker I:N-II:N via Actinocin(9to1); configuration not given here) on HS 578T breast?
Return: > 100 µM
